# Target or test system: ScBbc1
# Assay explanation: SPOT peptide array binding signal intensity (averaged, normalized) (arbitrary units (background-subtracted, floor 0; scale differs between SH3 domains)); higher = stronger binding of the SH3 domain to the peptide
Value kind: SPOT peptide array binding signal intensity
Response field accepts a number only; no unit should be typed.

Identify measured SPOT peptide array binding signal intensity associated with YSRKKLPVVLSKMTL
11

Supply recorded SPOT peptide array binding signal intensity for FYNRTAFQLPGDARV here.
3.5

Provide one value: measured SPOT peptide array binding signal intensity of VPVAPPPPPASLGQS
2.5
